Data provenance: patent US10239869B2

Molecular target: UniProtKB Q15858
Test: Inhibition of sodium channels, Red Membrane Potential Dye FLIPR assay, veratridine depolarization
Type: cell-based
Conditions: HEK-293 cells overexpressing the channel; 10 μM
Attribute: Nav1.7 inhibition @ 10 μM
assay-metric: Nav1.7 inhibition @ 10 μM (%)

- CS(=O)(=O)CCc1cc(C(F)(F)F)ccc1[C@@H]1CCOc2cc(S(=O)(=O)Nc3ccncn3)ccc21: 58
- CS(=O)(=O)CCc1cc(C(F)(F)F)ccc1[C@@H]1CCOc2cc(S(=O)(=O)Nc3ncccn3)ccc21: 71
- Cn1nccc1-c1cc(C(F)(F)F)ccc1[C@@H]1CCOc2cc(S(=O)(=O)Nc3cnccn3)ccc21: 96
- O=C1CCCN1c1cc(C(F)(F)F)ccc1[C@@H]1CCOc2cc(S(=O)(=O)Nc3ncc(F)cn3)ccc21: 65

----------
Target: UniProt Q15858
Assay: Inhibition of sodium channels, Red Membrane Potential Dye FLIPR assay, veratridine depolarization
Assay type: cell-based
Settings: HEK-293 cells overexpressing the channel; read-out: Nav1.7 IC50
assay-metric: IC50 (µM)

* O=S(=O)(Nc1ncccn1)c1ccc2c(c1)OCCC2c1ccc(C(F)(F)F)cc1O[C@H]1CCOC1 (stereo partly shown) [Example-179] | 0.038
* O=S(=O)(Nc1ccncn1)c1ccc2c(c1)OCC[C@@H]2c1ccc(C(F)(F)F)cc1Cl (racemic) [Example 106] | 0.147
* O=S(=O)(Nc1ncc(F)cn1)c1ccc2c(c1)OCC[C@H]2c1ccc(C(F)(F)F)cc1OC1CCOCC1 [Example-170] | 1.09
* COCCCCc1cc(C(F)(F)F)ccc1[C@@H]1CCOc2cc(S(=O)(=O)Nc3ncccn3)ccc21 [Example 146] | 0.79
* O=S(=O)(Nc1ncccn1)c1ccc2c(c1)OCC[C@@H]2c1ccc(C(F)(F)F)cc1OCCCF [Example-221] | 0.042
* Cn1nccc1-c1cc(C(F)(F)F)ccc1[C@H]1CCOc2cc(S(=O)(=O)Nc3ncccc3F)ccc21 [Example 18] | 0.759
* O=S(=O)(Nc1cccc(F)n1)c1ccc2c(c1)OCC[C@@H]2c1ccc(C(F)(F)F)cc1CCC(F)F (racemic) [Example-215] | 0.038
* O=S(=O)(Nc1ncccn1)c1ccc2c(c1)OCC[C@@H]2c1ccc(C(F)(F)F)cc1CCCF (racemic) [Example 158] | 0.13
* CC(C)Oc1cccc(NS(=O)(=O)c2ccc3c(c2)OCC[C@@H]3c2ccc(C(F)(F)F)cc2-c2ccnn2C)n1 [Example 26] | 0.685
* O=C(O)c1ccc(-c2cc(C(F)(F)F)ccc2[C@H]2CCOc3cc(S(=O)(=O)Nc4cccnn4)ccc32)cc1 (racemic) [Example-191] | 0.671
* O=S(=O)(Nc1ccncn1)c1ccc2c(c1)OCC[C@@H]2c1ccc(C(F)(F)F)cc1O[C@H]1CCOC1 (racemic) [Example-183] | 0.011
* O=S(=O)(Nc1ncc(F)cn1)c1ccc2c(c1)OCC[C@@H]2c1ccc(C(F)(F)F)cc1CCF (racemic) [Example 154] | 0.083
* Cc1ccnc(NS(=O)(=O)c2ccc3c(c2)OCC[C@@H]3c2ccc(C(F)(F)F)cc2-c2ccnn2C)c1 [Example 24] | 0.816
* Cc1nc(-c2cc(C(F)(F)F)ccc2[C@@H]2CCOc3cc(S(=O)(=O)Nc4cccc(F)n4)ccc32)cs1 [Example 61] | 0.568
* O=C1CCCN1c1cc(C(F)(F)F)ccc1[C@H]1CCOc2cc(S(=O)(=O)Nc3cccnn3)ccc21 (racemic) [Example 117] | 0.106
* O=S(=O)(Nc1cccnn1)c1ccc2c(c1)OCC[C@@H]2c1ccc(C(F)(F)F)cc1CCCF (racemic) [Example 161] | 0.012
* Cn1nccc1-c1cc(Cl)ccc1[C@@H]1CCOc2cc(S(=O)(=O)Nc3cccc(F)n3)ccc21 [Example 31] | 2.05
* O=S(=O)(Nc1cccnn1)c1ccc2c(c1)OCC[C@@H]2c1ccc(C(F)(F)F)cc1-n1ccnn1 [Example 54] | 0.706
* O=S(=O)(Nc1ccncn1)c1ccc2c(c1)OCC[C@@H]2c1ccc(C(F)(F)F)cc1CCCCF (racemic) [Example 165] | 0.005
* O=S(=O)(Nc1ncccn1)c1ccc2c(c1)OCC[C@@H]2c1ccc(C(F)(F)F)cc1Cl (racemic) [Example 104] | 0.184
* COCCOc1cc(C(F)(F)F)ccc1[C@H]1CCOc2cc(S(=O)(=O)Nc3ncc(F)cn3)ccc21 (racemic) [Example 126] | 0.14
* COCCCCc1cc(C(F)(F)F)ccc1[C@@H]1CCOc2cc(S(=O)(=O)Nc3cccc(F)n3)ccc21 [Example 151] | 0.39
* CCOc1ccc(-c2cc(C(F)(F)F)ccc2[C@@H]2CCOc3cc(S(=O)(=O)Nc4ncc(F)cn4)ccc32)cn1 [Example 101] | 2.59
* Cc1nc(-c2cc(C(F)(F)F)ccc2[C@H]2CCOc3cc(S(=O)(=O)Nc4ncccn4)ccc32)cs1 [Example 64] | 0.003
* COCCCOc1cc(C(F)(F)F)ccc1[C@H]1CCOc2cc(S(=O)(=O)Nc3ncc(F)cn3)ccc21 (racemic) [Example 132] | 0.163
* O=S(=O)(Nc1ncc(F)cn1)c1ccc2c(c1)OCC[C@@H]2c1ccc(C(F)(F)F)cc1OC1CCOCC1 [Example-171] | 0.125
* COCCCCc1cc(C(F)(F)F)ccc1[C@H]1CCOc2cc(S(=O)(=O)Nc3ncc(F)cn3)ccc21 (racemic) [Example 148] | 0.172
* O=S(=O)(Nc1ccncn1)c1ccc2c(c1)OCC[C@@H]2c1ccc(C(F)(F)F)cc1-c1nccs1 (racemic) [Example 94] | 0.003

----------
Target: UniProt:Q14524
Sequence (Q14524 whole entry): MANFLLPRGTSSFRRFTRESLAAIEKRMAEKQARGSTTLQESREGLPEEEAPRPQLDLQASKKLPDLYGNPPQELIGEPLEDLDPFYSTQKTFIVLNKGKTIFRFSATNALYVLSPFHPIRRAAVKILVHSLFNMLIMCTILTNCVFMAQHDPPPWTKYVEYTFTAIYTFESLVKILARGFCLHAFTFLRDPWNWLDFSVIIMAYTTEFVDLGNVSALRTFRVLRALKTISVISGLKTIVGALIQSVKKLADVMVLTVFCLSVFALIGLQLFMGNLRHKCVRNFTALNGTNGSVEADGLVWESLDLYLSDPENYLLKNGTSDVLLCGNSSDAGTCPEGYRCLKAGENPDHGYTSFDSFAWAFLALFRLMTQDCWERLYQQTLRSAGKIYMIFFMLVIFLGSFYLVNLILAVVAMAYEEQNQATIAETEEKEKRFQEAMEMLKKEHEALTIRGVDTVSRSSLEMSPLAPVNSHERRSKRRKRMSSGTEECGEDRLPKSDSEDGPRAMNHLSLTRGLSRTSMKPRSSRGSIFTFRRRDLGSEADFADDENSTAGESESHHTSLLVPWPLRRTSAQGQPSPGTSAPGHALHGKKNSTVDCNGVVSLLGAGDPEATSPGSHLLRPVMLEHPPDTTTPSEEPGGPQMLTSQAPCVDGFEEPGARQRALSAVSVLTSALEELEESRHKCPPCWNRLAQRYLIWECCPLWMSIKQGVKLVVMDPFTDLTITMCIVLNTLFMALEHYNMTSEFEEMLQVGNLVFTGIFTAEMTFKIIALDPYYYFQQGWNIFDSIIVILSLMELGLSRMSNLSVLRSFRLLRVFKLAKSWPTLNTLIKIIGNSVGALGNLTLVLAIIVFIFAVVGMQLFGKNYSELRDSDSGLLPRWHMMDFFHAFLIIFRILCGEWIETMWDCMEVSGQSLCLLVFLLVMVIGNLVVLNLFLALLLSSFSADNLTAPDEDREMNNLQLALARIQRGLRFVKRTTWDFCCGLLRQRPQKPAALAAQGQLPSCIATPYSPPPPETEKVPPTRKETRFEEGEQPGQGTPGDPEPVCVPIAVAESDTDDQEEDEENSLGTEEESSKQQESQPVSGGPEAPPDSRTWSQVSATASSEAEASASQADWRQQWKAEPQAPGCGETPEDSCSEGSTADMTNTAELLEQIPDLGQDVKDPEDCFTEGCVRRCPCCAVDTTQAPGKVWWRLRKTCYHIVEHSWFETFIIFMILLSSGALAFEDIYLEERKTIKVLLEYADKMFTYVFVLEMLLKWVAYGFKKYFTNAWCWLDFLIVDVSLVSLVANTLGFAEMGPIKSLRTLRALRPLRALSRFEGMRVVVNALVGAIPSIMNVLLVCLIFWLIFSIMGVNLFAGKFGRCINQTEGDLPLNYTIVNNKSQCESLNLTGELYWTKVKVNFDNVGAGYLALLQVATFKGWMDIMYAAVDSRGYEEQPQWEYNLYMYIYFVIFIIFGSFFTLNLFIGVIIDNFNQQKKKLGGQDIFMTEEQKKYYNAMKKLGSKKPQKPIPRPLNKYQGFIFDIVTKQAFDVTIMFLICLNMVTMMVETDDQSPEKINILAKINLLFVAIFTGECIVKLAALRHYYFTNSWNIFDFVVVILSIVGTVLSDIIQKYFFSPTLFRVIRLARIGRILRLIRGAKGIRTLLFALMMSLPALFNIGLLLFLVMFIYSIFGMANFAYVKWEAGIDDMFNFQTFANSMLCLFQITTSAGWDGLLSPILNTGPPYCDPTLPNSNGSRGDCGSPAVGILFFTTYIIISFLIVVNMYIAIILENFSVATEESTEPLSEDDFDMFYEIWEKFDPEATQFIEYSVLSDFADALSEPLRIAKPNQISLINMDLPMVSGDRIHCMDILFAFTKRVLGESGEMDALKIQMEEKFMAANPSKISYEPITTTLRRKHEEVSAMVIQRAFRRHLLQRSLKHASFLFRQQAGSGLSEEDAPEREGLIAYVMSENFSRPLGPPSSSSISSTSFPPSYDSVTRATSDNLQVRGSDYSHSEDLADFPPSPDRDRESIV
Assay: Inhibition of sodium channels, Red Membrane Potential Dye FLIPR assay, veratridine depolarization
Format: cell-based
Details: HEK-293 cells overexpressing the channel; 10 μM
Given measured Nav1.5 % inhibition @ 10 μM, output Met if it is greater than or equal to 60% and Not met if not.

* O=S(=O)(Nc1ncccn1)c1ccc2c(c1)OCCC2c1ccc(C(F)(F)F)cc1O[C@@H]1CCOC1 (stereo partly drawn) | Not met
* O=C1CCCN1c1cc(C(F)(F)F)ccc1[C@H]1CCOc2cc(S(=O)(=O)Nc3cccc(F)n3)ccc21 | Met
* O=S(=O)(Nc1ncc(F)cn1)c1ccc2c(c1)OCC[C@@H]2c1ccc(C(F)(F)F)cc1OC1CCOCC1 | Not met
* O=S(=O)(Nc1cccc(F)n1)c1ccc2c(c1)OCC[C@H]2c1ccc(C(F)(F)F)cc1OC1CCOCC1 | Not met
* COCCCCc1cc(C(F)(F)F)ccc1[C@H]1CCOc2cc(S(=O)(=O)Nc3cccc(F)n3)ccc21 | Met
* CCCc1cc(C(F)(F)F)ccc1[C@H]1CCOc2cc(S(=O)(=O)Nc3ncccn3)ccc21 | Met
* O=C1CCCN1c1cc(C(F)(F)F)ccc1[C@@H]1CCOc2cc(S(=O)(=O)Nc3cccc(F)n3)ccc21 | Met
* CCOc1ccc(-c2cc(C(F)(F)F)ccc2[C@@H]2CCOc3cc(S(=O)(=O)Nc4ncc(F)cn4)ccc32)cn1 | Not met
* Cn1nccc1-c1cc(C(F)(F)F)ccc1[C@H]1CCOc2cc(S(=O)(=O)Nc3cc(F)ccn3)ccc21 | Not met
* O=S(=O)(Nc1cccnn1)c1ccc2c(c1)OCCC2c1ccc(C(F)(F)F)cc1-n1ccnn1 (stereo not drawn) | Not met
* O=S(=O)(Nc1ccncn1)c1ccc2c(c1)OCC[C@@H]2c1ccc(C(F)(F)F)cc1OC1CCOCC1 | Met
* COCCCc1cc(C(F)(F)F)ccc1[C@H]1CCOc2cc(S(=O)(=O)Nc3ncccn3)ccc21 | Met
* Cc1nc(-c2cc(C(F)(F)F)ccc2[C@H]2CCOc3cc(S(=O)(=O)Nc4cccc(F)n4)ccc32)cs1 | Not met
* CCCc1cc(C(F)(F)F)ccc1[C@@H]1CCOc2cc(S(=O)(=O)Nc3cccc(F)n3)ccc21 | Met
* COCCCCc1cc(C(F)(F)F)ccc1[C@@H]1CCOc2cc(S(=O)(=O)Nc3cccc(F)n3)ccc21 | Not met

----------
Biological target: Nav 1.7 (Homo sapiens (Human))
Sequence (Q15858 whole entry): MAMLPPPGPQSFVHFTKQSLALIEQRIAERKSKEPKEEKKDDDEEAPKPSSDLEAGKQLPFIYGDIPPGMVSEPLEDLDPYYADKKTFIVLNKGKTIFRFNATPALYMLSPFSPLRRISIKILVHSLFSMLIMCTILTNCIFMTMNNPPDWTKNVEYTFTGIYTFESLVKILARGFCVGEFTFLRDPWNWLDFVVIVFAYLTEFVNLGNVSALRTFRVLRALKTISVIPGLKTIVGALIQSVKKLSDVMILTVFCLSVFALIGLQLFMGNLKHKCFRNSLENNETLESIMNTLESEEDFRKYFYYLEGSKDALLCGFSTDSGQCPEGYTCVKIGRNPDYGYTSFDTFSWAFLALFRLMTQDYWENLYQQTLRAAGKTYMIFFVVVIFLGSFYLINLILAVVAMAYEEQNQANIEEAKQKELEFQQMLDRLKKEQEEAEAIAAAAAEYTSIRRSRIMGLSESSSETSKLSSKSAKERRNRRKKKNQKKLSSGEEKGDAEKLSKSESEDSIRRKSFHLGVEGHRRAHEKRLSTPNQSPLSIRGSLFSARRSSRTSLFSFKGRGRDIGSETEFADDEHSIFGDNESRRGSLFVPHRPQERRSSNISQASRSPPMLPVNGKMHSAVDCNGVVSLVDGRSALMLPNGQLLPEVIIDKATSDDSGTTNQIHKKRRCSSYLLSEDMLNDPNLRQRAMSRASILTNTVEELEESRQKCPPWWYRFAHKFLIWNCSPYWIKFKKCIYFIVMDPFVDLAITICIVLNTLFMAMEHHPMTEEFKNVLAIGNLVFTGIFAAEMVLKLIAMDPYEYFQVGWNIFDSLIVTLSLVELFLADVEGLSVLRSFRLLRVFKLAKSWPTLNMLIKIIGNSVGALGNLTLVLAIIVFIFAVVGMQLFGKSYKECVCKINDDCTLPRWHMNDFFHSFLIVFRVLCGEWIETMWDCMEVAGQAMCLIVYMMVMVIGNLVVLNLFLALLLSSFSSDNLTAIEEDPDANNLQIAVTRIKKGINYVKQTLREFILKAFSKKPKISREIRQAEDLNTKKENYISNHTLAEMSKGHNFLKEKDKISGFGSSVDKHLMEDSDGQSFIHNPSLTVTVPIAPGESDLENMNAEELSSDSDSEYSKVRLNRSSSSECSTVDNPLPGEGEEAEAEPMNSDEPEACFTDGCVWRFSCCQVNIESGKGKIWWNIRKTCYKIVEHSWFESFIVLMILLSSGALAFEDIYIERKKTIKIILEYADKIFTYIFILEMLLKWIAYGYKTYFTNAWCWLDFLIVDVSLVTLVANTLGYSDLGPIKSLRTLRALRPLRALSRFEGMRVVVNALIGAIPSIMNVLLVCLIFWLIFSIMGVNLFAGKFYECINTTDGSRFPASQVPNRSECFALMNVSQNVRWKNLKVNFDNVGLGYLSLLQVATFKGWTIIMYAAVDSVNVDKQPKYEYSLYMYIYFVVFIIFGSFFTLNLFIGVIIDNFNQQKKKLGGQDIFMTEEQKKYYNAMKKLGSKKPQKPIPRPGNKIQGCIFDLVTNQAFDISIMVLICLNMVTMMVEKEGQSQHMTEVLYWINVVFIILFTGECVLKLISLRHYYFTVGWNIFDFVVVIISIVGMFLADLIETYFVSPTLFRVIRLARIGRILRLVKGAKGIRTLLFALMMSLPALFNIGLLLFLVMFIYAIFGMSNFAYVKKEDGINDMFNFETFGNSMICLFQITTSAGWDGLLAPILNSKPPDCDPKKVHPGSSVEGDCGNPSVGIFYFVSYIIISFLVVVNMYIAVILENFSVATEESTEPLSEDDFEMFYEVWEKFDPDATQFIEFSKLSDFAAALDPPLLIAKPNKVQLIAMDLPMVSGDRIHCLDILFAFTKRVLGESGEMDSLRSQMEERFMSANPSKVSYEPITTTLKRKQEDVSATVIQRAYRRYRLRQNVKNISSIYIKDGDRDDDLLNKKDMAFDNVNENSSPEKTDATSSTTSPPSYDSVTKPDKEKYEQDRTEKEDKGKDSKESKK
Assay: Inhibition of sodium channels, Red Membrane Potential Dye FLIPR assay, veratridine depolarization
Assay type: cell-based
Conditions: HEK-293 cells overexpressing the channel; 10 μM
Reported Nav1.7 inhibition @ 10 μM by item:
assay-metric: Nav1.7 inhibition @ 10 μM

- O=S(=O)(Nc1ccncn1)c1ccc2c(c1)OCC[C@H]2c1ccc(C(F)(F)F)cc1-c1ccc(F)cc1: 64%
- Cc1ccnc(NS(=O)(=O)c2ccc3c(c2)OCC[C@@H]3c2ccc(C(F)(F)F)cc2-c2ccnn2C)n1: 72%
- COc1cc(C(F)(F)F)ccc1[C@@H]1CCOc2cc(S(=O)(=O)Nc3cccc(F)n3)ccc21: 55%
- O=S(=O)(Nc1cccnn1)c1ccc2c(c1)OCCC2c1ccc(C(F)(F)F)cc1-n1ccnn1 (centres unmarked): 70%
- Cn1nccc1-c1cc(C(F)(F)F)ccc1[C@@H]1CCOc2cc(S(=O)(=O)Nc3cccnc3F)ccc21: 80%
- Cc1ccnc(NS(=O)(=O)c2ccc3c(c2)OCC[C@H]3c2ccc(C(F)(F)F)cc2-c2ccnn2C)n1: 91%
- O=S1(=O)CCN(c2cc(C(F)(F)F)ccc2[C@@H]2CCOc3cc(S(=O)(=O)Nc4ncccn4)ccc32)CC1: 36%
- Cn1nccc1-c1cc(C(F)(F)F)ccc1[C@@H]1CCOc2cc(S(=O)(=O)Nc3ncccc3F)ccc21: 96%
